Tested on: SK-OV-3 ovarian
Assay: NCI-60 one-dose screen, 48 h (100 = growth as untreated, 0 = no growth, -100 = all killed)
Settings: 10 µM unless noted
Compounds without any hit were thinned out: in the full panel of roughly 83,000, 20% have a hit. Active and inactive are the calls of the source. The calls were made as follows: active = growth percent below 10; inactive = the rest.
readout-type: growth

compound	readout-type	result
O=c1[nH]cnc2c1ccn2C1OC(CO)C(O)C1O (stereo not given)	growth	39.3% (inactive)
O=C(Nc1ccc(Cl)c(C(F)(F)F)c1)Nc1ccc(-c2cccnc2)cc1N1CCC(CO)CC1	growth	32.6% (inactive)
CC1(C)C(=NO)C(C)(C)C1=NO	growth	125% (inactive)
CC(C)OC(=O)Nc1cc(F)c(F)cc1F	growth	100% (inactive)
C=C(CN=[N+]=[N-])[C@@H]1CC[C@]2(C)[C@H](CC[C@@H]3[C@H]4[C@H]5OC(=O)[C@@]4(CCC5(C)C)CC[C@]32C)[C@@]1(C)CCC#N	growth	75.4% [100 µM] (inactive)

----------
System: COLO 205 colon
Assay: NCI-60 one-dose screen, 48 h (100 = growth as untreated, 0 = no growth, -100 = all killed)
Conditions: 10 µM unless noted
The panel holds about 83,000 compounds, 20% with a hit somewhere; the sample as a whole holds those more often. The source made the active and inactive calls. How the source made its calls: active means growth percent below 10; inactive means the rest.

compound	growth
CCCn1ccnc1C(O)c1ccc(OCc2ccccc2)c(OC)c1 (configuration not stated)	93.2% (inactive)
CCOc1ccc(/C=C(\C#N)c2cc3ccccc3[nH]2)cc1	49.4% (inactive)
N#Cc1c(Cl)nc(SCC2CO2)nc1-c1ccccc1 (configuration not stated)	131% (inactive)
O=c1[nH]c2cc(Cl)c(Cl)cc2n2cc3ncccc3c12	90.4% (inactive)
C=C1C(=O)O[C@H]2[C@H]1CC/C(COC(=O)NCc1ccc(Cn3c(=O)sn(-c4ccc(Cl)cc4)c3=O)cc1)=C\CC[C@@]1(C)O[C@@H]21	24% (inactive)
CCN(CC)c1ccc2cc(NC(=O)OCCNC(=O)CCNC(=O)[C@H](CC(C)C)NC(=O)C(C)(C)NC(=O)C(C)(C)NC(=O)[C@H](CC(C)C)NC(=O)CCNC(=O)C(C)(C)NC(=O)[C@H](CC(C)C)NC(=O)CCNC(=O)[C@@](C)(CC)NC(=O)[C@H](C)NC(=O)CCNC(=O)C(C)(C)NC(=O)[C@H](C)NC(=O)[C@@H]3CCCN3C(=O)[C@@](C)(CC)NC(=O)[C@H](Cc3ccccc3)NC(=O)C3CCCN3C(=O)C(C)(C)NC(=O)C3CCCN3C(=O)C(C)(C)NC(C)=O)c(=O)oc2c1 (some centres not stated)	-81.1% (active)
O=C(Oc1ccc(Cl)cc1[N+](=O)[O-])Oc1ccc(Cl)cc1[N+](=O)[O-]	122% (inactive)
CC1(C)S[C@@H]2[C@H](NC(=O)[C@H](C(=O)O)c3cccs3)C(=O)N2[C@H]1C(=O)O	111% (inactive)
CC1(C)CC[C@]2(C(N)=O)CC[C@]3(C)C(=CC[C@@H]4[C@@]5(C)C/C(=C/c6ccncc6)C(=O)C(C)(C)[C@@H]5CC[C@]43C)[C@@H]2C1	-55.3% [100 µM] (active)
Cc1ncc(C(=O)Nc2ccc(CN3CCN(C)CC3)c(C(F)(F)F)c2)cc1C#Cc1c(N)ncc2ccc(C#N)cc12	7.77% (active)
Cn1cc(-c2noc(-c3cn(C)c4ncccc34)n2)c2cc(Cl)ccc21	91.9% (inactive)
CCCCCCCCCCCCCCNC(=O)Nc1ccc(Cl)c(Cl)c1	31.7% (inactive)
COc1c(C(C)=O)c(OCCCCOc2c(C(C)=O)c(OC)c3ccoc3c2OC)c(OC)c2occc12	77% (inactive)
CCOc1ccc2sc(NS(=O)(=O)c3ccc(N)cc3)nc2c1	103% (inactive)
Cc1cc(SC#N)ncn1	115% (inactive)
COc1cc2c(cc1OC(C)=O)C(=O)CCCC2	135% (inactive)
CCc1ccc(C2=C/C(=C/c3ccccc3)C(=O)N2CCc2ccc(S(N)(=O)=O)cc2)cc1	120% (inactive)
